assay: pH-solubility of polypeptide variants; type: physicochemical; conditions: pH 5.5
Peptide text beside a SMILES is read from it.
Assay Metric: solubility thermodynamic at 3 min (µg/mL)
Output spec: scalar in µg/mL, unitless text.

# return recorded solubility thermodynamic at 3 min for entry CC(C)[C@H](NC(=O)[C@@H](NC(=O)[C@H](Cc1ccccc1)NC(=O)[C@@H](NC(=O)[C@@H](NC(=O)[C@@H](N)Cc1ccccc1)[C@@H](C)O)[C@@H](C)O)[C@@H](C)O)C(=O)N[C@H](C(=O)O)[C@@H](C)O [CSP7, FTTFTVT] (H-FTTFTVT-OH; N-terminus and C-terminus assumed)
160

* * *

experiment: Appearance of solutions in solubility study of variants; type: physicochemical; conditions: pH 4.5, 20 mg/ml
Peptide text beside a SMILES is read from it.
Assay Metric: Appearance of solutions

Molecule	Measured Result
CC(C)[C@H](NC(=O)[C@@H](NC(=O)[C@H](Cc1ccccc1)NC(=O)[C@@H](NC(=O)[C@@H](NC(=O)[C@H](Cc1ccccc1)NC(=O)[C@H](CO)NC(=O)[C@H](C)NC(=O)[C@@H](N)CCCCN)[C@@H](C)O)[C@@H](C)O)[C@@H](C)O)C(=O)N[C@H](C(=O)N[C@@H](CCCCN)C(=O)NCC(=O)N[C@@H](CO)C(=O)O)[C@@H](C)O [SEQ ID NO.4] (H-KASFTTFTVTKGS-OH)	Clear
CC(C)[C@H](N)C(=O)N[C@H](C(=O)N[C@@H](CCCCN)C(=O)N[C@@H](Cc1ccc(O)cc1)C(=O)N[C@@H](Cc1c[nH]c2ccccc12)C(=O)N[C@@H](Cc1ccccc1)C(=O)N[C@@H](Cc1ccc(O)cc1)C(=O)N[C@@H](CCCNC(=N)N)C(N)=O)[C@@H](C)O [SEQ ID NO.22] (H-VTKYWFYR-NH2)	Clear

* * *

assay: Appearance of solutions in solubility study of variants; format: physicochemical; settings: pH 7.5, 5 mg/ml
Square brackets hold non-standard residues; d marks the D form. Peptide text beside a SMILES is read from it. Orn = NCCC[C@H](N)C(=O)O
Assay Metric: Appearance of solutions

Compound	Measured Result
CC(C)[C@H](N)C(=O)N[C@H](C(=O)N[C@@H](CCCCN)C(=O)N[C@@H](Cc1ccc(O)cc1)C(=O)N[C@@H](Cc1c[nH]c2ccccc12)C(=O)N[C@@H](Cc1ccccc1)C(=O)N[C@@H](Cc1ccc(O)cc1)C(=O)N[C@@H](CCCNC(=N)N)C(N)=O)[C@@H](C)O [SEQ ID NO.22] (H-VTKYWFYR-NH2)	Clear
CC(C)[C@H](NC(=O)[C@@H](NC(=O)[C@H](Cc1ccccc1)NC(=O)[C@@H](NC(=O)[C@@H](NC(=O)[C@H](Cc1ccccc1)NC(=O)[C@H](CO)NC(=O)[C@H](C)NC(=O)[C@@H](N)CCCN)[C@@H](C)O)[C@@H](C)O)[C@@H](C)O)C(=O)N[C@H](C(=O)N[C@@H](CCCN)C(=O)N[C@@H](CO)C(N)=O)[C@@H](C)O [SEQ ID NO.10, OASFTTFTVTOS-NH2] (H-[Orn]ASFTTFTVT[Orn]S-NH2)	Clear
CC(C)[C@H](NC(=O)[C@@H](NC(=O)[C@H](Cc1ccccc1)NC(=O)[C@@H](NC(=O)[C@@H](NC(=O)[C@H](Cc1ccccc1)NC(=O)[C@H](CO)NC(=O)[C@H](C)NC(=O)[C@@H](N)CCCCN)[C@@H](C)O)[C@@H](C)O)[C@@H](C)O)C(=O)N[C@H](C(=O)N[C@@H](CCCCN)C(=O)NCC(=O)N[C@@H](CO)C(=O)O)[C@@H](C)O [SEQ ID NO.4] (H-KASFTTFTVTKGS-OH)	Clear

* * *

assay: Appearance of solutions in solubility study of variants; type: physicochemical; settings: pH 4.5, 20 mg/ml
Square brackets hold non-standard residues; d marks the D form. Peptide text beside a SMILES is read from it. Orn = NCCC[C@H](N)C(=O)O

Molecule	Appearance of solutions
CC(C)[C@H](NC(=O)[C@@H](NC(=O)[C@H](Cc1ccccc1)NC(=O)[C@@H](NC(=O)[C@@H](NC(=O)[C@H](Cc1ccccc1)NC(=O)[C@H](CO)NC(=O)[C@H](C)NC(=O)[C@H](CCCCN)NC(=O)CNC(=O)[C@H](CCC(=O)O)NC(=O)[C@@H](C)NC(=O)[C@@H](C)N)[C@@H](C)O)[C@@H](C)O)[C@@H](C)O)C(=O)N[C@H](C(=O)N[C@@H](CCCCN)C(=O)NCC(=O)N[C@@H](CO)C(=O)N[C@H](C)C(=O)N[C@H](C)C(N)=O)[C@@H](C)O [SEQ ID NO.7] (H-[dA][dA]EGKASFTTFTVTKGS[dA][dA]-NH2)	Clear
CC(C)[C@H](NC(=O)[C@@H](NC(=O)[C@H](Cc1ccccc1)NC(=O)[C@@H](NC(=O)[C@@H](NC(=O)[C@H](Cc1ccccc1)NC(=O)[C@H](CO)NC(=O)[C@H](C)NC(=O)[C@@H](N)CCCN)[C@@H](C)O)[C@@H](C)O)[C@@H](C)O)C(=O)N[C@H](C(=O)N[C@@H](CCCN)C(=O)N[C@@H](CO)C(N)=O)[C@@H](C)O [SEQ ID NO.10, OASFTTFTVTOS-NH2] (H-[Orn]ASFTTFTVT[Orn]S-NH2)	Clear
CC(=O)N[C@H](C)C(=O)N[C@H](C)C(=O)N[C@@H](CCC(=O)O)C(=O)NCC(=O)N[C@@H](CCCCN)C(=O)N[C@@H](C)C(=O)N[C@@H](CO)C(=O)N[C@@H](Cc1ccccc1)C(=O)N[C@H](C(=O)N[C@H](C(=O)N[C@@H](Cc1ccccc1)C(=O)N[C@H](C(=O)N[C@H](C(=O)N[C@H](C(=O)N[C@@H](CCCCN)C(=O)NCC(=O)N[C@@H](CO)C(=O)N[C@H](C)C(=O)N[C@H](C)C(N)=O)[C@@H](C)O)C(C)C)[C@@H](C)O)[C@@H](C)O)[C@@H](C)O [SEQ ID NO.8] (Ac-[dA][dA]EGKASFTTFTVTKGS[dA][dA]-NH2)	Clear

* * *

test: physchem; type: physicochemical; details: pH 10, aqueous buffer
Peptide text beside a SMILES is read from it.
Assay Metric: solubility thermodynamic at 24 h (µg/mL)
Could you give me the number in µg/mL? Just the number is fine.

Annotate the molecule CC(C)[C@H](NC(=O)[C@@H](NC(=O)[C@H](Cc1ccccc1)NC(=O)[C@@H](NC(=O)[C@@H](NC(=O)[C@@H](N)Cc1ccccc1)[C@@H](C)O)[C@@H](C)O)[C@@H](C)O)C(=O)N[C@H](C(=O)O)[C@@H](C)O [CSP7 (ammonium counterion), FTTFTVT] (H-FTTFTVT-OH; N-terminus and C-terminus assumed) with its measured solubility thermodynamic at 24 h.
7870

* * *

Experiment: pH-solubility of polypeptide variants
Assay type: physicochemical
Details: pH 6.5
Protocol: Solubility study of variants was performed by adding variants powders into solvent in concentration of 5 mg/ml and then vortexing for 3 min. Observe the appearance of solutions in 5 min. Add more powder (˜5 mg/ml each time) and repeat vortex and observe until precipitation or gelation occurs.
Peptide text beside a SMILES is read from it.
Assay Metric: solubility thermodynamic at 3 min (µg/mL)
Numeric answer only, unit µg/mL assumed.

Look up solubility thermodynamic at 3 min of CC(C)[C@H](NC(=O)[C@@H](NC(=O)[C@H](Cc1ccccc1)NC(=O)[C@@H](NC(=O)[C@@H](NC(=O)[C@@H](N)Cc1ccccc1)[C@@H](C)O)[C@@H](C)O)[C@@H](C)O)C(=O)N[C@H](C(=O)O)[C@@H](C)O [CSP7, FTTFTVT] (H-FTTFTVT-OH; N-terminus and C-terminus assumed) and report it.
160

* * *

assay: physchem; assay type: physicochemical; settings: pH 8, aqueous buffer
Peptide text beside a SMILES is read from it.
Assay Metric: solubility thermodynamic at 24 h (µg/mL)
The answer is to be given in µg/mL; state only the numeric part.

// Input: CC(C)[C@H](NC(=O)[C@@H](NC(=O)[C@H](Cc1ccccc1)NC(=O)[C@@H](NC(=O)[C@@H](NC(=O)[C@@H](N)Cc1ccccc1)[C@@H](C)O)[C@@H](C)O)[C@@H](C)O)C(=O)N[C@H](C(=O)O)[C@@H](C)O [CSP7 (ammonium counterion), FTTFTVT] (H-FTTFTVT-OH; N-terminus and C-terminus assumed) . Output its solubility thermodynamic at 24 h only.
380

* * *

assay: Appearance of solutions in solubility study of variants; format: physicochemical; settings: pH 8.5, 10 mg/ml
Square brackets hold non-standard residues; d marks the D form. Peptide text beside a SMILES is read from it.

Molecule	Appearance of solutions
CC(=O)N[C@H](C)C(=O)N[C@H](C)C(=O)N[C@@H](CCC(=O)O)C(=O)NCC(=O)N[C@@H](CCCCN)C(=O)N[C@@H](C)C(=O)N[C@@H](CO)C(=O)N[C@@H](Cc1ccccc1)C(=O)N[C@H](C(=O)N[C@H](C(=O)N[C@@H](Cc1ccccc1)C(=O)N[C@H](C(=O)N[C@H](C(=O)N[C@H](C(=O)N[C@@H](CCCCN)C(=O)NCC(=O)N[C@@H](CO)C(=O)N[C@H](C)C(=O)N[C@H](C)C(N)=O)[C@@H](C)O)C(C)C)[C@@H](C)O)[C@@H](C)O)[C@@H](C)O [SEQ ID NO.8] (Ac-[dA][dA]EGKASFTTFTVTKGS[dA][dA]-NH2)	Clear
CC(C)[C@H](N)C(=O)N[C@H](C(=O)N[C@@H](CCCCN)C(=O)N[C@@H](Cc1ccc(O)cc1)C(=O)N[C@@H](Cc1c[nH]c2ccccc12)C(=O)N[C@@H](Cc1ccccc1)C(=O)N[C@@H](Cc1ccc(O)cc1)C(=O)N[C@@H](CCCNC(=N)N)C(N)=O)[C@@H](C)O [SEQ ID NO.22] (H-VTKYWFYR-NH2)	Clear
CC(C)[C@H](NC(=O)[C@@H](NC(=O)[C@H](Cc1ccccc1)NC(=O)[C@@H](NC(=O)[C@@H](NC(=O)[C@H](Cc1ccccc1)NC(=O)[C@H](CO)NC(=O)[C@H](C)NC(=O)[C@@H](N)CCCCN)[C@@H](C)O)[C@@H](C)O)[C@@H](C)O)C(=O)N[C@H](C(=O)N[C@@H](CCCCN)C(=O)NCC(=O)N[C@@H](CO)C(=O)O)[C@@H](C)O [SEQ ID NO.4] (H-KASFTTFTVTKGS-OH)	Clear

The measured values listed here are drawn from patent US12280088B2.
